biological target: TEAD1 (Homo sapiens (Human), UniProt P28347); test: TEAD lipid pocket TR-FRET (Lipid HTRF) probe competition assay; type: binding; conditions: 30 mins incubation with compound; read-out: Lipid HTRF TEAD1 IC50
Sequence (P28347 whole entry, species assumed): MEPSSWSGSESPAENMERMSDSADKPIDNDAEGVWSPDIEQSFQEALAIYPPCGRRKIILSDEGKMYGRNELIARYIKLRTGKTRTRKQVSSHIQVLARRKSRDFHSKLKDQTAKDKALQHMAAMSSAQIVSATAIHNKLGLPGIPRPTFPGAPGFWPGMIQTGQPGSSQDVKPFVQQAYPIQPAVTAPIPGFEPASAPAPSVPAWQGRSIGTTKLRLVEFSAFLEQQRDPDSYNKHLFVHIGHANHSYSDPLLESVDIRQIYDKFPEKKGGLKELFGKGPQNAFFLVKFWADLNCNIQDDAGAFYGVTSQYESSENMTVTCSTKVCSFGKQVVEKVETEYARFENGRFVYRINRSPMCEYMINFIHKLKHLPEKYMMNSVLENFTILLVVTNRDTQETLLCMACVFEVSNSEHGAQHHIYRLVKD
IC50 values by entry
Include the unit after the number when you answer.

compound: C=C(CNc1cc(-c2ccc(C(C)C)cc2)c2c(c1F)CCO2)C(=O)O
target-entity: TEAD1 (Homo sapiens (Human), UniProt P28347)
IC50: 0.06 µM

### Prompt Observed IC50 on TEAD1 (Homo sapiens (Human), UniProt P28347) for C=C(CNc1cc(-c2ccc(C(C)C)cc2)c2c(c1C(N)=O)CCO2)C(=O)O , please.
### Response 1.8 µM

### Prompt Query C=C(CNc1cc(-c2ccc(C(C)C)cc2)c2c(c1C#N)CCO2)C(=O)NC next
### Response 1.6 µM

### Prompt Consider next the compound C=C(CNc1cc(-c2ccc(C(C)C(F)(F)F)cc2)c2c(c1C#N)CCO2)C(=O)O (single isomer, unassigned) [Enantiomer D from Example 16] in the same way.
### Response 0.08 µM

### Prompt // same read-out, input: C=C(CNc1cc(-c2ccc(C(C)C(F)(F)F)cc2)c2c(c1C#N)CCO2)C(=O)O (single isomer, unassigned) [Enantiomer C from Example 16]
### Response 0.02 µM

### Prompt Consider next the compound C=C(CNc1nc2c(c(-c3ccc(C(C)C)cc3)n1)OCC2)C(=O)O in the same way.
### Response 0.2 µM

### Prompt Follow-up item: C=C(CNc1cc(-c2ccc(OC(F)(F)F)cc2)c2ncsc2c1C#N)C(N)=O
### Response 0.37 µM

### Prompt Another compound to look at: C=C(CNc1cc(-c2ccc(C(C)(F)F)cc2)c2c(c1C#N)CCO2)C(=O)O
### Response 0.05 µM

* * *

target: TEAD2 YAP50-100 (Homo sapiens (Human), UniProt Q15562); test: TEAD-YAP protein-protein interaction HTRF assay; settings: TEAD2 YAP50-100 HTRF combined EC50, 30 mins incubation with compound
Sequence (Q15562 217-447): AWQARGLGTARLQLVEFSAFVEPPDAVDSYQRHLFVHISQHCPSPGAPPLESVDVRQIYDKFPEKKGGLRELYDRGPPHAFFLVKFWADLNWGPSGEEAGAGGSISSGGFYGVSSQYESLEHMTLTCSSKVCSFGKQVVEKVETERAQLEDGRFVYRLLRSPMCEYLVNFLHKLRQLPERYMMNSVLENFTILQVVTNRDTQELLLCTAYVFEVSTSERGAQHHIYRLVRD
pEC50: −log10 of the molar value.
Lab note: compare pEC50 against 7. Equal or greater, write True. Smaller, write False.

A selection of reference data follows.
molecule-smiles: C=C(CNc1cc(-c2ccc(C(C)C)cc2)c2c(c1C(N)=O)CCO2)C(=O)O
answer-label: False
--
molecule-smiles: C=C(CNc1nc(-c2ccc(C(C)C)cc2)c2c(c1C#N)CCO2)C(=O)O
answer-label: True
--
molecule-smiles: C=C(CNc1cc(-c2ccc(C(C)(F)F)cc2)c2c(c1C#N)CCO2)C(=O)O
answer-label: False

Next item in the queue.
### Prompt Given the entry C=C(CNc1cc(-c2ccc(C(C)C)cc2)c2c(c1C#N)CCO2)C(=O)N(C)C , answer whether its pEC50 meets or surpasses 7.
### Response False

* * *

biological target: TEAD4 (Homo sapiens (Human)); assay: TEAD lipid pocket TR-FRET (Lipid HTRF) probe competition assay; assay type: binding; settings: 4 hours incubation with compound; read-out: Lipid HTRF TEAD4 IC50
Sequence (Q15561 whole entry, species assumed): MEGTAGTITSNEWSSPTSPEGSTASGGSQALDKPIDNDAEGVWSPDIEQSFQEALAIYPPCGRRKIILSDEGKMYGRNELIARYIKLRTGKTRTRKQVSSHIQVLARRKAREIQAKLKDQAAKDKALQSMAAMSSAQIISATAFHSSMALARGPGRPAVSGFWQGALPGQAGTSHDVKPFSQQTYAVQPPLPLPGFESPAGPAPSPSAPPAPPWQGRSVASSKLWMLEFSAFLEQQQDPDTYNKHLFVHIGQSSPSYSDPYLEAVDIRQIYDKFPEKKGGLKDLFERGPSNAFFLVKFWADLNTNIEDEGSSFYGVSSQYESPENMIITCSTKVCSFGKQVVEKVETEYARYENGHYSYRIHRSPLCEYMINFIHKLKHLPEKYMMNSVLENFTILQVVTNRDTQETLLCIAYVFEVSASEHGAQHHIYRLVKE
IC50 values by entry
Please respond with the number in nM and leave the unit unwritten.

A selection of reference data follows.
compound: C=C(CNc1cc(-c2ccc(OC(F)(F)F)cc2)c2c(c1CO)CCO2)C(N)=O [Compound 35]
target-entity: TEAD4 (Homo sapiens (Human))
parameter: IC50
measurement: 250
//
compound: C=C(CNc1cc(-c2ccc(OC(F)(F)F)cc2)c2c(c1C#N)CCO2)C(=O)NO [Compound 39]
target-entity: TEAD4 (Homo sapiens (Human))
parameter: IC50
measurement: 60

### Prompt Fill in: IC50 of C=C(CNc1cc(-c2ccc(OC(F)(F)F)cc2)c2ncsc2c1C#N)C(=O)NO [Compound 41] is ___
### Response 40

### Prompt How about C=C(CNc1cc(-c2nc(C(C)C)cs2)c2c(c1C#N)CCO2)C(=O)NO [Compound 31] ?
### Response 36000

### Prompt Queued: [2H]C1([2H])COc2c(-c3ccc(C(C)C)cc3)cc(NCC(=C)C(=O)NO)c(C#N)c21 [Compound 29]
### Response 40

### Prompt Further, for C=C(CNc1cc(-c2ccc(S(F)(F)(F)(F)F)cc2)c2c(c1C#N)CCO2)C(=O)O [Compound 45] ?
### Response 80

### Prompt One more compound: C=C(CNc1cc(-c2ccc(S(F)(F)(F)(F)F)cc2)c2ncsc2c1C#N)C(=O)NO [Compound 51]
### Response 60

### Prompt Would you mind doing C=C(CNc1cc(-c2cc(C(C)C)cs2)c2c(c1C#N)CCO2)C(=O)O [Compound 32] as well?
### Response 10

### Prompt Could you do the same for C=C(CNc1cc(-c2ncc(C(C)C)s2)c2c(c1C#N)CCO2)C(=O)O [Compound 49] , please?
### Response 90

* * *

molecular target: TEAD3 YAP50-100 (Homo sapiens (Human)); assay: TEAD-YAP protein-protein interaction HTRF assay; settings: TEAD3 YAP50-100 HTRF combined EC50, 30 mins incubation with compound
Sequence (Q99594 218-435): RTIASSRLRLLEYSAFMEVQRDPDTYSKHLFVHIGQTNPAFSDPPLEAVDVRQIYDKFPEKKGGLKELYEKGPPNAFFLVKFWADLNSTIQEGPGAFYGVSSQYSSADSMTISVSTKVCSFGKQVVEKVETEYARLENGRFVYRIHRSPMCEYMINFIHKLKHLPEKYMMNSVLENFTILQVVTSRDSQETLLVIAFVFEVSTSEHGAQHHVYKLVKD
parameter: pEC50
By convention, pEC50 is the negative base-10 log of a molar concentration.

Examples with answers:
compound: C=C(CNc1cc(-c2ccc(C(C)C)cc2)c2c(c1C#N)CCO2)C(=O)O [Compound 3]
target-entity: TEAD3 YAP50-100 (Homo sapiens (Human))
measurement: 5.21
//
compound: C=C(CNc1cc(-c2ccc(C(C)C)cc2)c2c(c1C#N)CCO2)C(=O)NO [Compound 9]
target-entity: TEAD3 YAP50-100 (Homo sapiens (Human))
measurement: 5.66
//
compound: C=C(CNc1cc(-c2ccc(C(C)C)cc2)c2c(c1CO)CCO2)C(=O)NO [Compound 14]
target-entity: TEAD3 YAP50-100 (Homo sapiens (Human))
measurement: 5.47

### Prompt Lab note: need pEC50 with TEAD3 YAP50-100 (Homo sapiens (Human)) for entry C=C(CNc1cc(-c2ccc(OC(F)(F)F)cc2)c2c(c1C#N)CCO2)C(=O)O [Compound 18] , please look it up.
### Response 5.11

### Prompt Would you kindly repeat that for C=C(CNc1cc(-c2ccc(C(C)(F)F)cc2)c2c(c1C#N)CCO2)C(=O)O [Compound 19] ?
### Response 4.82

* * *

This section presents compounds with their documented pEC50 values.
molecular target: TEAD1 YAP50-100 (Homo sapiens (Human)); assay: TEAD-YAP protein-protein interaction HTRF assay; conditions: TEAD1 YAP50-100 HTRF combined EC50, 30 mins incubation with compound
Sequence (P28347 209-426): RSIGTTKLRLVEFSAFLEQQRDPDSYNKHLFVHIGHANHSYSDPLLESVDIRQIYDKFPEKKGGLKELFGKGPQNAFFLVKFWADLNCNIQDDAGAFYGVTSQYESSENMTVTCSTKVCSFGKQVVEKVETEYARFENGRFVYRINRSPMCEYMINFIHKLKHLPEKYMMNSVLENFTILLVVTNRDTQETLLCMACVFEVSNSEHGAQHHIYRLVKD
Scale: negative log10 of molar concentration, which is what pEC50 denotes.

compound: C=C(CNc1cc(-c2ccc(C(C)C)cc2)c2c(c1F)CCO2)C(=O)O
target-entity: TEAD1 YAP50-100 (Homo sapiens (Human))
pEC50: 7.40
//
compound: C=C(CNc1cc(-c2ccc(C(C)C)cc2)c2c(c1CO)CCO2)C(=O)NO
target-entity: TEAD1 YAP50-100 (Homo sapiens (Human))
pEC50: 6.55
//
compound: C=C(CNc1cc2c(c(-c3ccc(C(C)C)cc3)c1)OCC2)C(N)=O
target-entity: TEAD1 YAP50-100 (Homo sapiens (Human))
pEC50: 6.34

### Prompt May I ask what pEC50 has been recorded for C=C(CNc1cc(-c2ccc(C(C)C)cc2)c2c(c1C#N)CCO2)C(=O)NO ?
### Response 6.72

### Prompt Now the same for C=C(CNc1cc(-c2ccc(C(C)C)cn2)c2c(c1C#N)CCO2)C(=O)O
### Response 5.72

### Prompt And then C=C(CNc1cc(-c2ccc(C(F)(F)F)cc2)c2c(c1C#N)CCO2)C(=O)O , what is it?
### Response 7.40

### Prompt Subsequent entry: C=C(CNc1cc(-c2ccc(C(C)C)cc2)c2c(c1CO)CCO2)C(N)=O
### Response 6.48

### Prompt Then this compound: C=C(CNc1cc(-c2ccc(C(C)(F)F)cc2)c2ncsc2c1C#N)C(=O)O
### Response 7.10

### Prompt Please answer likewise for C=C(CNc1cc(-c2ccc(C(C)C)cc2)c2c(c1C#N)CCO2)C(N)=O
### Response 6.64

### Prompt Next compound up: C=C(CNc1cc(-c2ccc(C(C)C)cc2)c2c(c1C(N)=O)CCO2)C(=O)O
### Response 6.00

### Prompt Now the compound C=C(CNc1cc(-c2ccc(C(C)C)cc2)c2c(c1S(C)(=O)=O)CCO2)C(=O)O
### Response 6.28

### Prompt Cool, now C=C(CNc1cc(-c2ccc(C(C)C(F)(F)F)cc2)c2c(c1C#N)CCO2)C(=O)O (single isomer, unassigned) [Enantiomer D from Example 16]
### Response 7.40

### Prompt How about this compound: C=C(CNc1nc2c(c(-c3ccc(C(C)C)cc3)n1)OCC2)C(=O)O
### Response 6.82

### Prompt Record: C=C(CN(C)c1cc(-c2ccc(C(C)C)cc2)c2c(c1C#N)CCO2)C(=O)O
### Response 6.29

### Prompt Same question, C=C(CNc1cc(-c2ccc(C(C)(F)F)cc2)c2c(c1C#N)CCO2)C(=O)O this time
### Response 7.40

### Prompt Repeat with C=C(CNc1cc(-c2ccc(OC(F)(F)F)cc2)c2c(c1C#N)CCO2)C(=O)O
### Response 7.70

### Prompt Moving on to the next compound: C=C(CNc1cc2c(c(-c3ccc(C(C)C)cc3)c1)OCC2)C(=O)O
### Response 6.77
